# ASSAY SYSTEM: cGMP PDE5 (Homo sapiens, UniProt O76074)
pIC50: −log10 of the molar value.
Let's look at some compounds and their measured pIC50.
METRIC NAME: pIC50

>>> observed("CCOc1ncc(S(=O)(=O)N2CCN(CC)CC2)cc1-c1nc2c(CC)n(CCOC)nc2c(=O)[nH]1 [Example 8]")
8.77
>>> observed("CCCCOc1ncc(S(=O)(=O)N2CCN(CC)CC2)cc1-c1nc2c(CC)n(CC(=O)N(C)C)nc2c(=O)[nH]1 [Example 60]")
9.35
>>> observed("CCCc1c2nc(-c3cc(S(=O)(=O)N4CCN(CC)CC4)cnc3OCC(C)C)[nH]c(=O)c2nn1CCOC [Example 27]")
9.07
>>> observed("CCOc1ncc(S(=O)(=O)N2CCN(CC)CC2)cc1-c1nc2c(CC)n(CC(C)C)nc2c(=O)[nH]1 [Example 5]")
9.00
>>> observed("CCCOc1ncc(S(=O)(=O)N2CCN(CC)CC2)cc1-c1nc2c(CC)n(CCN(C)C(C)=O)nc2c(=O)[nH]1 [Example 24]")
8.82

----------
Let's look at some compounds and their measured Selectivity (PDE 5/6).
# ASSAY SYSTEM: rod cGMP PDE6 (Bos taurus, UniProt P11541+P23439)
# Construct: the IC50 measurements for rod cGMP PDE6 were based upon data generated on bovine retina tissue; from tissue; host or cells: bovine retina
# Sequence (P11541 2-856 limits assumed): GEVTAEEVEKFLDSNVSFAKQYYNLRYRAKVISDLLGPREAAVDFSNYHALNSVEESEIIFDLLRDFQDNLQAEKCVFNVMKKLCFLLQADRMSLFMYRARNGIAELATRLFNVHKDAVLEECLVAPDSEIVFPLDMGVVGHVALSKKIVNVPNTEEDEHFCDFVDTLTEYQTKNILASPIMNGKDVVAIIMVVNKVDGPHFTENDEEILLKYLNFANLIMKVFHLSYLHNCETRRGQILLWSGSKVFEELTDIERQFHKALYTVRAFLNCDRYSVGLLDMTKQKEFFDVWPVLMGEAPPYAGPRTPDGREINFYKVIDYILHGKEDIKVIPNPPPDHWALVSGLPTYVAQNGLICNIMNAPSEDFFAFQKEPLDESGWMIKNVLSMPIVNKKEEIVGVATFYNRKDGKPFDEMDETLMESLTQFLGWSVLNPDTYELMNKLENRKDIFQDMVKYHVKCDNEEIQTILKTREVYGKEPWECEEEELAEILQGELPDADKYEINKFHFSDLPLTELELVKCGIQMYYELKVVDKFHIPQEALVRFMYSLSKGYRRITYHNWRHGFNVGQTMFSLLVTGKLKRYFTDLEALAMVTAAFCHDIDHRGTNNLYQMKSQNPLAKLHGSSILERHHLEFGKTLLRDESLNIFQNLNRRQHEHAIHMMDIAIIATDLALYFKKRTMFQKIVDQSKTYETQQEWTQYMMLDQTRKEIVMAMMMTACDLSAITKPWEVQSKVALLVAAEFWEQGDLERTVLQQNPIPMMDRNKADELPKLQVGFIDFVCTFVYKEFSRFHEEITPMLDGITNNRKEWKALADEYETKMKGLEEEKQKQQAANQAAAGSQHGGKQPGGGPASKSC
# Sequence (P23439 2-850 limits assumed): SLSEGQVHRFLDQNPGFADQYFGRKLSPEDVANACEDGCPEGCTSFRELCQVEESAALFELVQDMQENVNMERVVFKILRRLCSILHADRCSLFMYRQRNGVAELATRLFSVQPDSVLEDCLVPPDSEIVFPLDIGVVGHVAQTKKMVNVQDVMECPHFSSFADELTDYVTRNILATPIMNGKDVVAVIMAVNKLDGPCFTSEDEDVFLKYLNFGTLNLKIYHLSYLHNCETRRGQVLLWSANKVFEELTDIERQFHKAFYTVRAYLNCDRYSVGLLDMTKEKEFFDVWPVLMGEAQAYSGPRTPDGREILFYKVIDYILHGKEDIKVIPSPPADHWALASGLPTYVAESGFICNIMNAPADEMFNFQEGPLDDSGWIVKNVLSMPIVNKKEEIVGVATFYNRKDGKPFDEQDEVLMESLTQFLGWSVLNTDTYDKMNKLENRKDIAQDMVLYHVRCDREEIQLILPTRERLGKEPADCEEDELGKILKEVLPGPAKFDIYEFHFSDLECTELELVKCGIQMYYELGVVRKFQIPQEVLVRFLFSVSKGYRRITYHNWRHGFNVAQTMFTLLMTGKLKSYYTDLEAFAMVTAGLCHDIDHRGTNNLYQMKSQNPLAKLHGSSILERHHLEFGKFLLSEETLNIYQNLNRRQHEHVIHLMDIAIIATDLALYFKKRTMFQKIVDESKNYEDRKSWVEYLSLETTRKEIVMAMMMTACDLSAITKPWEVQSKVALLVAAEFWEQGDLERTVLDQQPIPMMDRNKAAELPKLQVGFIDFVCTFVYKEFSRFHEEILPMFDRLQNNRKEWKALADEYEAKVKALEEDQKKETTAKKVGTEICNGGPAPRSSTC
# TEST PROTOCOL: In vitro PDE inhibitory activity against rod cGMP PDE6 (IC50), used for the PDE5 versus PDE6 selectivity
# Format: biochemical
# CONDITION CONTEXT: ratio of IC50 for cGMP PDE5 (human corpus cavernosum) and rod cGMP PDE6 (bovine retina)
METRIC NAME: Selectivity (PDE 5/6)

>>> observed("CCOc1ncc(S(=O)(=O)N2CCN(CC)CC2)cc1-c1nc2c(CC)n(CCOC)nc2c(=O)[nH]1 [Example 8]")
223.8
>>> observed("CCCCOc1ncc(S(=O)(=O)N2CCN(CC)CC2)cc1-c1nc2c(CC)n(CC(=O)N(C)C)nc2c(=O)[nH]1 [Example 60]")
343.7
>>> observed("CCOc1ncc(S(=O)(=O)N2CCN(CC)CC2)cc1-c1nc2c(CC)n(C3CN(C(C)=O)C3)nc2c(=O)[nH]1 [Example 22]")
325.3
>>> observed("CCCCOc1ncc(S(=O)(=O)N2CCN(CC)CC2)cc1-c1nc2c(CC)n(CCN(C)C)nc2c(=O)[nH]1 [Example 17]")
254.1
>>> observed("CCCOc1ncc(S(=O)(=O)N2CCN(CC)CC2)cc1-c1nc2c(CC)n(CCN(C)C(C)=O)nc2c(=O)[nH]1 [Example 24]")
134.9
>>> observed("CCCc1c2nc(-c3cc(S(=O)(=O)N4CCN(CC)CC4)cnc3OCC(C)C)[nH]c(=O)c2nn1CCOC [Example 27]")
161
